B1: glmS ribozyme (parent)
chain: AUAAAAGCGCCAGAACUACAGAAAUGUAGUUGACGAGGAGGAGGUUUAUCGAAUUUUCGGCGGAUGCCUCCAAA

Variants of: B1
assay overview: self-cleavage kobs at 40 uM GlcN6P; higher = faster cleavage; RNA array
condition notes: with glucosamine-6-phosphate
Fewer inactive variants are shown than the library holds.
endpoint name: self-cleavage kobs at 40 uM GlcN6P

AUAAAGGCGCCAGAACUACAGAAAUGUAGUUGACGCGGAGGAGGUUUAUCUAAUUUUCGGCGGAUGCCUCCAAA [A6G A36C G51U]; < 1e-05 s⁻¹
AUAAAAGCGCCAGAACUACAGAAAUGUAGUUGACGAGGAGGAGGUUAAUCGACUUUUCGGCGGAUGCCUCCAAA [U47A A53C]; 0.000173 s⁻¹
AUAAAAGCGCCAGAACUACAGAAAUGUAGUUGAUGAGGAGGAGGUUUAUCGAAUUUUCGCCGGAUGCCUCCAAA [C34U G60C]; < 1e-05 s⁻¹
AUAAAAGCGCCAGAACUACAGAAAUGUACUUGACGAGGACGAGGUUUAUCGAAUUUUCGGCGGACGCCUCCAAA [G29C G40C U65C]; < 1e-05 s⁻¹
AUAAAAGAGCCAGAUCUACAGAAAUGUAGUUGACGAGGAGGAGGUUUAUCGAAUUUUCGGCGGAUGCCUCCAAA [C8A A15U]; < 1e-05 s⁻¹

For each entry beneath this line, provide reported self-cleavage kobs at 40 uM GlcN6P.
1. AUAAAAGCGCCAGAAGUACAGAAAUGUAGUUGACGAGGAGGAGGUUUAUCGAAAUUUCGGCGGAUGCCUCCAAA [C16G U54A]
2. AUAAAAGCGCCAGAACUACAGAAAUGUAUUUGUCAAGGAGGAGGUUUAUCGAAUUUUCGGCGGAUGCCACCAAA [G29U A33U G35A U69A]
3. AUAAAAGCGCCAGAACUACAGAAAUGUAGUUGACGAGGAGGCGAUUUAUCGAAUUUUCGGCGGAUGCCUCCAAA [A42C G44A]
4. AUAAAAGCGCCAGUAUUACAGAAAUGUAUUUGACGAGGAGGAGGUUUAUAGAAUUUUCGGCUGAUGCCUCCAAA [A14U C16U G29U C50A G62U]
5. AUAAAAGCGCUAGAACUACAGAAAUGUAGUUGAAGAGGAGGAGGUUUAUCGAAUUUUCGGCGGAUGCCUCCAAA [C11U C34A]

Out:
["0.000135 s⁻¹", "0.000163 s⁻¹", "< 1e-05 s⁻¹", "< 1e-05 s⁻¹", "< 1e-05 s⁻¹"]

For each entry beneath this line, provide reported self-cleavage kobs at 40 uM GlcN6P.
1. AUAAAAGCGCCAGAACUACAGAAAUGUAGUUGACGAGGAGGAGCUUUAUCGAAUUUUCGGCGGAUGCCUCGAAA [G44C C71G]
2. AUAAAAGCGCAAGAACUACAGAAAUGUAGUUGACGAGGAGGAGGUUUAUCGAAUUUUCGGAGGAUGACUCCAAA [C11A C61A C67A]

Out:
1: < 1e-05 s⁻¹; 2: 0.000153 s⁻¹
